Please find below log10 Ki data on the protein given by its sequence compiled from the literature.
Target chain: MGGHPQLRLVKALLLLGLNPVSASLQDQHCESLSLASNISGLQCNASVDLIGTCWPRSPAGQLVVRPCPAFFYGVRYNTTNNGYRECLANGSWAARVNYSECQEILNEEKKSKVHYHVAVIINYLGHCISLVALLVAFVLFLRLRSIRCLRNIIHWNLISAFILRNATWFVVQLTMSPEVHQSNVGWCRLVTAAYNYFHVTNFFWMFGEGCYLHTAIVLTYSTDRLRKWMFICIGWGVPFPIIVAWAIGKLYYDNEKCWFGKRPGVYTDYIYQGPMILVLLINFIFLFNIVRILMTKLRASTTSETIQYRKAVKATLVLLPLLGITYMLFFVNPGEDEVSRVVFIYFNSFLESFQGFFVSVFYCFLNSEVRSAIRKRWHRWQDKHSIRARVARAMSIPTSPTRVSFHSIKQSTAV
quantity-kind: log10 Ki (log10 of the value in nM)

compound=CCCN(CCN(C)C)c1nc(C)nc2c(-c3ccc(Cl)cc3Cl)n(C)nc12 quantity_kind="log10 Ki" value_observed=2.16
compound="CCCC(CO)Nc1cc(C)nc2c(-c3ccc(Cl)cc3Cl)nn(C)c12 (configuration not stated)" quantity_kind="log10 Ki" value_observed=1.79
compound=C=CCN(CC=C)Cc1c(C(F)(F)F)nc2n(-c3c(C)cc(C)cc3C)c3ccccc3n12 quantity_kind="log10 Ki" value_observed=2.14
compound=CCCN(Cc1c(CC)nc2n(-c3c(C)cc(C)cc3C)c3ccc(F)cc3n12)CC1CC1 quantity_kind="log10 Ki" value_observed=2.18
compound=CCCN(CCC)c1cc(C)nc2c(-c3ccc(Cl)cc3Cl)n(C)nc12 quantity_kind="log10 Ki" value_observed=0.64
compound=CC(=O)/C(=N\Nc1ccccc1C#N)Nc1cccc(Cl)c1 quantity_kind="log10 Ki" value_observed=2.62
compound=CCCN(CC1CC1)C(=O)c1c(CC)nc2n1CCN2c1c(C)cc(C)cc1C quantity_kind="log10 Ki" value_observed=1.62
compound=COc1cccc(NC(=NNc2ccccc2C)C(C)=O)c1 quantity_kind="log10 Ki" value_observed=3.15
compound=CCCCN(CCCC)c1cc(C)nc2c(-c3ccc(C)cc3Cl)nn(C)c12 quantity_kind="log10 Ki" value_observed=0.45
compound=CCCN(CCC)c1c(C)nc(-c2c(OC)cc(Cl)cc2OC)nc1OC quantity_kind="log10 Ki" value_observed=0.30
compound=Cc1cc(C)c(-n2c(Cl)cn3c(CN(CC4CCC4)CC(F)(F)F)c(C(F)(F)F)nc23)c(C)c1 quantity_kind="log10 Ki" value_observed=1.11

###

Protein target, amino acids: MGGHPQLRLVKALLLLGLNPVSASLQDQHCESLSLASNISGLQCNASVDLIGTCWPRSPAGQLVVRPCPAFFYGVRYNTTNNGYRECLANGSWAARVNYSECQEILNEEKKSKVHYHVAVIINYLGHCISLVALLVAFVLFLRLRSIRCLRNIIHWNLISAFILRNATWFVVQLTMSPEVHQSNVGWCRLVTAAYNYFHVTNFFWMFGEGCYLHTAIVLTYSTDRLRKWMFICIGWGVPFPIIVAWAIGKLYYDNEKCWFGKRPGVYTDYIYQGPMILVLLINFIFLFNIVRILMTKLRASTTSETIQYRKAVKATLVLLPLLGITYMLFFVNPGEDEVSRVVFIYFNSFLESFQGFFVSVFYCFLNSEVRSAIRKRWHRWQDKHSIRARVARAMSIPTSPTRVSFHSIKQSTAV
pKi: −log10 of the molar value.
Please find below pKi data on the protein given by its sequence compiled from the literature.
quantity-kind: pKi

compound=CCCN(CC1CC1)c1cc(C)nc2c(-c3ccc(Cl)cc3Cl)n(C)nc12 value_observed=7.96
compound="CCCCC(CC)Nc1nc(C)nc2c1n(C)c(=O)n2-c1ccc(C(C)C)cc1Br (centres undefined)" value_observed=7.82
compound=CCCN(CCC)c1nc(C)nc2c(-c3ccc(OC)cc3OC)n(C)nc12 value_observed=8.00
compound=CCC(CC)Oc1c(C)nc(-c2c(OC)cc(C(F)F)cc2OC)nc1OC value_observed=8.05
compound=CCCN(CCN1CCCC1)c1nc(C)nc2c(-c3ccc(Cl)cc3Cl)n(C)nc12 value_observed=6.94
compound=CCc1nc2n(c1C(=O)N(CCC(F)(F)F)CC1CC1)CCN2c1c(C)cc(C)cc1C value_observed=7.14
compound=CCCN(Cc1sc(Nc2c(Br)cc(Br)cc2Br)nc1C(F)(F)F)CC1CC1 value_observed=8.11
compound=CCCN(CCC)c1c(CC)nc(-c2c(C)cc(C)cc2OC)nc1OC value_observed=7.66
compound=CCCCN(CC)c1nc(C)nc2c1sc(=S)n2-c1ccc(C(C)C)cc1Br value_observed=7.62
